biological target: Apelin receptor (Homo sapiens) (UniProt P35414); assay: apelin receptor inhibitor analogs – cell-based, luminescence, SAR follow-up (AID 463109); conditions: CHO-K1 AGTRL-1 PathHunter beta-arrestin luminescence
Sequence (P35414 whole entry, looked up): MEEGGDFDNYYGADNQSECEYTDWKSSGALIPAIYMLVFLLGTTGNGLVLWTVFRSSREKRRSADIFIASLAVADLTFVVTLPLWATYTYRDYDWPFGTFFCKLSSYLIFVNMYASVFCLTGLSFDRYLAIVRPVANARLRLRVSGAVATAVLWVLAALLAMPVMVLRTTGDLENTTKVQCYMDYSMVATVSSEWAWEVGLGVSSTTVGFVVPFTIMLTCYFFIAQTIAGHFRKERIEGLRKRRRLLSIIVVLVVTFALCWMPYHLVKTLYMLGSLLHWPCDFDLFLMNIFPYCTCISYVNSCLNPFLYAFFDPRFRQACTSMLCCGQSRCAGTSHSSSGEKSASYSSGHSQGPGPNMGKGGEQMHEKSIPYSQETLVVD
Activity calls are given as the source filed them.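 Rule for the calls: active = mean IC50 below 10 µM; inactive = the rest.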
Select the matching outcome among active, inactive

* Cc1ccc(N=C2C(=O)Nc3c(C)cccc32)cc1 | inactive
* COc1ccc(S(=O)(=O)NNc2nc(C)cc(C)n2)cc1Br | inactive
* O=c1cc(CSc2ccc(Cl)cc2)nc(-c2ccccn2)[nH]1 | inactive
* Cc1cc(C)nc(NNS(=O)(=O)c2ccc(Cl)cc2)n1 | active
* O=S(=O)(NN=Cc1ccc(-c2ccccc2Cl)o1)c1ccccc1 | inactive

(Q) Returns: the outcome recorded for O=C1Nc2ccccc2C1=Nc1ccc(F)cc1 in this assay.
(A) active

(Q) Outcome logged for Oc1cccc2ccc(/C=C/c3ccccc3Cl)nc12 in this assay:
(A) inactive

(Q) Recorded test outcome, item O=C1Nc2ccccc2C1=Nc1ccc(Br)cc1
(A) active

(Q) Entry O=C(Nc1nc2c(F)cc(F)cc2s1)c1ccccn1 : call = ?
(A) active

(Q) Assay outcome for Cc1cccc2c1NC(=O)C2=Nc1ccc(Cl)cc1 : what was it?
(A) active

(Q) Field: outcome | Entry: CC(C)OC(=O)CN1C(=O)C(=O)c2ccccc21
(A) active
